Data provenance is patent US20050124606A1.

observed_property: melting point

COc1ccccc1Oc1ccc2c(c1)S(=O)(=O)NC1CCCN21 (centres unmarked) [Example 13] :: 175 to 176 °C

Query string: Fill in the blank: the reported melting point of Cc1cccc(Oc2ccc3c(c2)S(=O)(=O)NC2CCCN32)c1 (centres unmarked) [Example 8] is ____.
Result string: 190 to 195 °C

Query string: Fill in: melting point of CCN1CNS(=O)(=O)c2cc(Oc3cccc(NS(C)(=O)=O)c3)ccc21 [Example 58] is ___
Result string: 165 to 168 °C

Query string: Give the measured melting point of CCCN1CNS(=O)(=O)c2cc(Oc3ccccc3)ccc21 [Example 30] .
Result string: 143 to 145 °C

Query string: What value of melting point has been reported for the following compound? CCN1CNS(=O)(=O)c2cc(Oc3cccc(C(C)=O)c3)ccc21 [Example 59]
Result string: 164 to 166 °C

* * *

Entries and their measured melting point follow.

Before answering, review these 6 worked examples.
COc1ccc(Oc2ccc3c(c2)S(=O)(=O)NC2CCCN32)cc1 (stereo not drawn) [Example 9] :: 188 to 191 °C
CCN1CNS(=O)(=O)c2cc(Oc3cccc(C)c3)ccc21 [Example 57] :: 72 to 75 °C
O=S1(=O)NC2CCCN2c2ccc(Oc3ccc4ccccc4c3)cc21 (stereo not drawn) [Example 21] :: 234 to 236 °C
Cc1ccc(Oc2ccc3c(c2)S(=O)(=O)NC2CCCN32)cc1 (stereo not drawn) [Example 7] :: 222 to 226 °C
CCN1CNS(=O)(=O)c2cc(Oc3cccc(OC)c3)ccc21 [Example 32] :: 91 to 93 °C
O=S1(=O)NC2CCCN2c2ccc(Oc3cc(C(F)(F)F)cc(C(F)(F)F)c3)cc21 (stereo not drawn) [Example 16] :: 201 to 203 °C

Query string: What value of melting point has been recorded for this entry: O=S1(=O)NC2CCCN2c2ccc(Oc3cccc(F)c3)cc21 (stereo not drawn) [Example 37]
Result string: 201 °C

Query string: Name the reported melting point value associated with the molecule O=S1(=O)NC2CCCN2c2ccc(Oc3cccc(Br)c3)cc21 (stereo not drawn) [Example 38]
Result string: 193 to 195 °C

Query string: Quick one: melting point for CC(C)c1cccc(Oc2ccc3c(c2)S(=O)(=O)NC2CCCN32)c1 (stereo not drawn) [Example 36] ?
Result string: 171 to 172 °C

* * *

observed_property: melting point

Some entries whose results are on file:
O=S1(=O)NC2CCCN2c2ccc(Oc3cccc(OC(F)(F)F)c3)cc21 (centres unmarked) :: 175 °C
N#Cc1cccc(Oc2ccc3c(c2)S(=O)(=O)NC2CCCN32)c1 (centres unmarked) :: 227 to 230 °C
CCc1cccc(Oc2ccc3c(c2)S(=O)(=O)NC2CCCN32)c1 (centres unmarked) :: 143 to 144 °C

Query string: Field request: melting point | item: O=S1(=O)NC2CCCN2c2ccc(Oc3cccc(Cl)c3)cc21 (centres unmarked)
Result string: 194 to 198 °C

Query string: So what does the record say about melting point for O=S1(=O)NC2CCCN2c2ccc(Oc3cccc4ccccc34)cc21 (centres unmarked) ?
Result string: 227 to 229 °C
